target: T1, human melanocortin 4 receptor (human, UniProt P32245 1-332); assay: competition with 125-NDP-α-MSH, BHK human MC4R membranes
T1 construct: whole, on cells; cAMP assay on whole BHK cells; also called MC4R; human MC4 receptor
T1 sequence (P32245 whole entry): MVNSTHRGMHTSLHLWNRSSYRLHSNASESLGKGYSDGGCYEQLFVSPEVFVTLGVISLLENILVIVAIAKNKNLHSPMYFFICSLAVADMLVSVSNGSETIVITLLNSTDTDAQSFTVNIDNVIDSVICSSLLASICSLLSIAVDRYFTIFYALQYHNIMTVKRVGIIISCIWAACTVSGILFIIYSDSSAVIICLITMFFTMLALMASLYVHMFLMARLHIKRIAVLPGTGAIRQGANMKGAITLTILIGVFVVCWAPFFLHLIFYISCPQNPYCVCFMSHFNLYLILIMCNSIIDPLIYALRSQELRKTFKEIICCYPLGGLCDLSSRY
Positions of bridges follow the written chain, without caps; N, C: chain ends. Non-standard residues stand in square brackets, D forms with d. Cit = NC(=O)NCCC[C@H](N)C(=O)O
endpointLabel: Ki (nM)

- cyclo(CEH[dF]HWCEH[dF]HW) (disulfide 1-7; SMILES O=C(O)CC[C@@H]1NC(=O)[C@@H]2CSSC[C@H](NC(=O)[C@H](Cc3c[nH]c4ccccc34)NC(=O)[C@H](Cc3c[nH]cn3)NC(=O)[C@@H](Cc3ccccc3)NC(=O)[C@H](Cc3c[nH]cn3)NC1=O)C(=O)N[C@@H](CCC(=O)O)C(=O)N[C@@H](Cc1c[nH]cn1)C(=O)N[C@H](Cc1ccccc1)C(=O)N[C@@H](Cc1c[nH]cn1)C(=O)N[C@@H](Cc1c[nH]c3ccccc13)C(=O)N2, also called c[c[Cys-Glu-His-D-Phe-His-Trp-Cys]-Glu-His-D-Phe-His-Trp]) [Chem. 53]: 9.47
- cyclo(CKH[dF][Cit]WCKH[dF][Cit]W) (disulfide 1-7; SMILES NCCCC[C@@H]1NC(=O)[C@@H]2CSSC[C@H](NC(=O)[C@H](Cc3c[nH]c4ccccc34)NC(=O)[C@H](CCCNC(N)=O)NC(=O)[C@@H](Cc3ccccc3)NC(=O)[C@H](Cc3c[nH]cn3)NC1=O)C(=O)N[C@@H](CCCCN)C(=O)N[C@@H](Cc1c[nH]cn1)C(=O)N[C@H](Cc1ccccc1)C(=O)N[C@@H](CCCNC(N)=O)C(=O)N[C@@H](Cc1c[nH]c3ccccc13)C(=O)N2, also called c[c[Cys-Lys-His-D-Phe-Cit-Trp-Cys]-Lys-His-D-Phe-Cit-Trp]) [Chem. 55]: 0.33
